- TARGET_OF_ASSAY: CDK2/cyclin A (Homo sapiens, UniProt P24941)
- MEASUREMENT_NOTES: Inhibitory activity against CDK2/cyclin A enzyme (GST-RB phosphorylation, P32-γ-ATP, scintillation counting)
- EXPERIMENTAL_SETUP: 100 μM ATP, GST-RB substrate, 30° C. 30 minutes
Lab note: anything with IC50 below 20 µM is marked 1 (yes); values at 20 µM or higher are marked 0 (no).

Cc1cc2oc(-c3ccc(O)c(O)c3)c(O)c(=O)c2cc1C [Compound 26]: 1 (yes)

Given COc1cccc2oc(-c3ccc4c(c3)OCO4)c(O)c(=O)c12 [Compound 4] , is recorded IC50 strictly lower than 20 µM? 0 (no)

Given O=c1c(O)c(-c2ccc(O)c(O)c2)oc2ccc(NS(=O)(=O)c3ccc(Cl)c([N+](=O)[O-])c3)cc12 [Compound 40] , is recorded IC50 strictly lower than 20 µM? 0 (no)

Given Cc1ccc2oc(-c3ccc(O)c(O)c3)c(O)c(=O)c2c1 [Compound 18] , is recorded IC50 strictly lower than 20 µM? 1 (yes)

* * *

- TARGET_OF_ASSAY: CDK2/cyclin A (Homo sapiens)
- MEASUREMENT_NOTES: Inhibitory activity against CDK2/cyclin A enzyme (GST-RB phosphorylation, P32-γ-ATP, scintillation counting)
- EXPERIMENTAL_SETUP: 100 μM ATP, GST-RB substrate, 30° C. 30 minutes
- Protocol: Analysis of inhibitory activity against CDK2/cyclin A and CDK4/cyclin D1 enzyme. The inhibitory activity against CDK2 is measured by referring to Kitagawa, M. et al., Oncogene 9:2549, 1994 and the inhibitory activity against CDK4 is measured by referring to Carlson, B. A. et al., Cancer Research 56:2473,1996. […] Specifically the activities of enzymes CDK2/cyclin A and CDK4/cyclin D1 were determined according to the following procedure. […]
# pIC50 per record follows
# log scale: pIC50 equals minus log10 of the concentration in mol/L

The cases that follow already have their pIC50 on record.
N#Cc1cccc(NC(=O)Nc2ccc3oc(-c4ccc(O)c(O)c4)c(O)c(=O)c3c2)c1 [Compound 60]: 5.33
O=c1c(O)c(-c2ccc(O)c(O)c2)oc2ccc(NS(=O)(=O)c3ccc(-c4ccon4)s3)cc12 [Compound 36]: 4.92
O=c1c(O)c(-c2ccc(O)c(O)c2)oc2ccc(NS(=O)(=O)c3ccc(Br)cc3)cc12 [Compound 29]: 4.75
O=c1c(O)c(-c2ccc(O)c(O)c2)oc2ccc(NS(=O)(=O)c3ccc(F)cc3F)cc12 [Compound 42]: 4.34
O=C(Nc1ccccc1)Nc1ccc2oc(-c3ccc(O)c(O)c3)c(O)c(=O)c2c1 [Compound 56]: 5.30
O=c1c(O)c(-c2ccc(O)c(O)c2)oc2ccc(NS(=O)(=O)c3ccc(F)cc3)cc12 [Compound 43]: 5.07
Cc1ccc(S(=O)(=O)Nc2ccc3oc(-c4ccc(O)c(O)c4)c(O)c(=O)c3c2)cc1 [Compound 28]: 4.25

Let us move to another entry and its pIC50.
Bench note: what pIC50 did CN(C)c1cccc2c(S(=O)(=O)Nc3ccc4oc(-c5ccc(O)c(O)c5)c(O)c(=O)c4c3)cccc12 [Compound 32] show? 4.45

* * *

- TARGET_OF_ASSAY: CDK2/cyclin A (Homo sapiens)
- MEASUREMENT_NOTES: Inhibitory activity against CDK2/cyclin A enzyme (GST-RB phosphorylation, P32-γ-ATP, scintillation counting)
- EXPERIMENTAL_SETUP: 100 μM ATP, GST-RB substrate, 30° C. 30 minutes
# IC50 per record follows
Response body: numeric value in µM, unit text excluded.

The cases that follow already have their IC50 on record.
O=C(Nc1ccc2oc(-c3ccc(O)c(O)c3)c(O)c(=O)c2c1)c1ccccc1: 23
O=C(Nc1cccc(Br)c1)Nc1ccc2oc(-c3ccc(O)c(O)c3)c(O)c(=O)c2c1: 4.2
O=C(O)c1ccc(S(=O)(=O)Nc2ccc3oc(-c4ccc(O)c(O)c4)c(O)c(=O)c3c2)cc1: 28.2

Let us move to another entry and its IC50.
Bench note: what IC50 did O=c1c(O)c(-c2ccc(O)c(O)c2)oc2ccc(NS(=O)(=O)c3cc(Br)c(Br)s3)cc12 show? 3

* * *

- TARGET_OF_ASSAY: CDK4/cyclin D1 (Homo sapiens, UniProt P11802)
- Construct: made in house; host or cells: insect cells infected with baculoviruses
- Sequence (P11802 whole entry, species assumed): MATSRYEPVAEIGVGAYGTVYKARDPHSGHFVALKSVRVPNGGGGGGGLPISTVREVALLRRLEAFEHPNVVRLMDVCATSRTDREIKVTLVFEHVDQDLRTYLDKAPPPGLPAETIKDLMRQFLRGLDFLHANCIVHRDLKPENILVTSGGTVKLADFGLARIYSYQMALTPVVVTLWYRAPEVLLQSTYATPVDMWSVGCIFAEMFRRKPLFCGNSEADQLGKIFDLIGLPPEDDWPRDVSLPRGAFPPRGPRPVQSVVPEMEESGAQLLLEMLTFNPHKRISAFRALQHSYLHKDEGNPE
- Sequence (P24385 whole entry partner, species assumed): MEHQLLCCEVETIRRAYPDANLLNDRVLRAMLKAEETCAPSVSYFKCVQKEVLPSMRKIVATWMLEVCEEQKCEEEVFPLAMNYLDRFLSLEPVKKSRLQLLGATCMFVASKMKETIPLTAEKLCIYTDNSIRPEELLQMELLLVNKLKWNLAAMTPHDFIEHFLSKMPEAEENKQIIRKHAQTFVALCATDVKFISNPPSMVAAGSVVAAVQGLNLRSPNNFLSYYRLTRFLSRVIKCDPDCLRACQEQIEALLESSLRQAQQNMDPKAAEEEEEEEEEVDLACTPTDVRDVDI
- MEASUREMENT_NOTES: Inhibitory activity against CDK4/cyclin D1 enzyme (GST-RB phosphorylation, P32-γ-ATP, scintillation counting)
- Assay type: biochemical
- EXPERIMENTAL_SETUP: CDK4/cyclin D1, 100 μM ATP, GST-RB substrate, 30° C. 30 minutes
QUANTITY_MEASURED: pIC50
# log scale: pIC50 equals minus log10 of the concentration in mol/L

The cases that follow already have their pIC50 on record.
O=c1c(O)c(-c2ccc(O)c(O)c2)oc2ccc(NS(=O)(=O)CCc3cccc4ccccc34)cc12: 5.30
O=C(Nc1ccc(Br)cc1)Nc1ccc2oc(-c3ccc(O)c(O)c3)c(O)c(=O)c2c1: 6.15
O=c1c(O)c(-c2ccc(O)c(O)c2)oc2ccc(NS(=O)(=O)c3ccc(C(F)(F)F)cc3)cc12: 5.19

Which measured pIC50 belongs to CC(=O)Nc1ccc2oc(-c3ccc(O)c(O)c3)c(O)c(=O)c2c1 , tested on CDK4/cyclin D1 (Homo sapiens, UniProt P11802)? 5.25

Which measured pIC50 belongs to O=c1c(O)c(-c2ccc(O)c(O)c2)oc2ccc(NS(=O)(=O)c3ccc(F)c(F)c3)cc12 , tested on CDK4/cyclin D1 (Homo sapiens, UniProt P11802)? 5.59

Which measured pIC50 belongs to O=c1c(O)c(-c2ccc(O)c(O)c2)oc2ccc(NS(=O)(=O)c3ccc(Cl)c([N+](=O)[O-])c3)cc12 , tested on CDK4/cyclin D1 (Homo sapiens, UniProt P11802)? 5.60

* * *

- TARGET_OF_ASSAY: CDK4/cyclin D1 (Homo sapiens, UniProt P11802)
- MEASUREMENT_NOTES: Inhibitory activity against CDK4/cyclin D1 enzyme (GST-RB phosphorylation, P32-γ-ATP, scintillation counting)
- EXPERIMENTAL_SETUP: CDK4/cyclin D1, 100 μM ATP, GST-RB substrate, 30° C. 30 minutes
# IC50 per record follows
Response body: numeric value in nM, unit text excluded.

The cases that follow already have their IC50 on record.
O=c1c(O)c(-c2ccc(O)c(O)c2)oc2ccc(NS(=O)(=O)c3cc(Br)c(Br)s3)cc12: 1000
O=c1c(O)c(-c2ccc(O)c(O)c2)oc2ccc(NS(=O)(=O)c3cccc(Br)c3)cc12: 2100
O=C(NCc1ccccc1)Nc1ccc2oc(-c3ccc(O)c(O)c3)c(O)c(=O)c2c1: 2800

Which measured IC50 belongs to O=c1c(O)c(-c2ccc(O)c(O)c2)oc2ccc(NS(=O)(=O)c3ccc(Br)cc3)cc12 , tested on CDK4/cyclin D1 (Homo sapiens, UniProt P11802)? 1800

* * *

- TARGET_OF_ASSAY: CDK4/cyclin D1 (Homo sapiens)
- MEASUREMENT_NOTES: Inhibitory activity against CDK4/cyclin D1 enzyme (GST-RB phosphorylation, P32-γ-ATP, scintillation counting)
- EXPERIMENTAL_SETUP: CDK4/cyclin D1, 100 μM ATP, GST-RB substrate, 30° C. 30 minutes
pIC50: −log10 of the molar value.
QUANTITY_MEASURED: pIC50

The cases that follow already have their pIC50 on record.
O=C(NC(=O)c1ccccc1)Nc1ccc2oc(-c3ccc(O)c(O)c3)c(O)c(=O)c2c1: 4.74
COc1ccc2oc(-c3ccc4c(c3)OCO4)c(O)c(=O)c2c1: < 4.00

Let us move to another entry and its pIC50.
Bench note: what pIC50 did Cc1cc2oc(-c3ccc(O)c(O)c3)c(O)c(=O)c2cc1C show? > 5.00

* * *

# pIC50 per record follows
- TARGET_OF_ASSAY: CDK4/cyclin D1 (Homo sapiens, UniProt P11802)
- MEASUREMENT_NOTES: Inhibitory activity against CDK4/cyclin D1 enzyme (GST-RB phosphorylation, P32-γ-ATP, scintillation counting)
- EXPERIMENTAL_SETUP: CDK4/cyclin D1, 100 μM ATP, GST-RB substrate, 30° C. 30 minutes
pIC50: −log10 of the molar value.

COc1ccc(-c2oc3c(Cl)cc(Cl)cc3c(=O)c2O)cc1: < 4.00
O=c1c(O)c(-c2ccc(O)c(O)c2)oc2c(O)cccc12: > 5.00
O=c1c(O)c(-c2ccc(O)c(O)c2)oc2c(O)c(O)ccc12: > 5.00
O=c1c(O)c(-c2ccc(O)c(O)c2)oc2ccc(NS(=O)(=O)NC3CCCCC3)cc12: 5.70
O=c1c(O)c(-c2ccc(O)c(O)c2)oc2c(F)cc(F)cc12: > 5.00
O=C(Nc1ccc2oc(-c3ccc(O)c(O)c3)c(O)c(=O)c2c1)c1ccccc1: 5.22

Bench note: what pIC50 did COc1ccc(-c2oc3c([N+](=O)[O-])cc(Cl)cc3c(=O)c2O)cc1 show? < 4.00

Bench note: what pIC50 did COc1ccc2c(=O)cc(-c3ccc(Cl)cc3)oc2c1 show? < 3.70

Bench note: what pIC50 did O=C(Nc1ccc2oc(-c3ccc(O)c(O)c3)c(O)c(=O)c2c1)c1ccc(Cl)cc1 show? 5.25

Bench note: what pIC50 did O=c1c(O)c(-c2ccc(O)c(O)c2)oc2cc(O)cc(O)c12 show? > 4.30
